- Tested on: Serratia marcescens expressing IMP-1 (CL5741)
- Format: cell-based
- ASSAY_CONTEXT: IMP-1 strain CL5741, with imipenem 1 μg/ml, 95% inhibition of growth
Structures can show the parent of a compound that is named as a salt.
MEASUREMENT_KIND: Serratia marcescens MITC95 (µM)

| MOLECULE | SYSTEM_NAME | OBSERVED_MEASUREMENT |
| --- | --- | --- |
| Nc1ccc(-c2ccc(S(=O)(=O)N[C@@H]3CCCNC3)c(S(N)(=O)=O)c2-c2nn[nH]n2)cn1 | Serratia marcescens expressing IMP-1 (CL5741) | 1.563 |
| NCCNS(=O)(=O)c1ccc(-c2cccc(SC[C@H](O)CN)c2)c(-c2nn[nH]n2)c1S(N)(=O)=O | Serratia marcescens expressing IMP-1 (CL5741) | 0.7813 |
| NC[C@@]1(NS(=O)(=O)c2ccc(-c3ccc(N)nc3)c(-c3nn[nH]n3)c2S(N)(=O)=O)CCNC1 [Example 487, dihydrochloride] | Serratia marcescens expressing IMP-1 (CL5741) | 0.7813 |
| C[C@@H](N)c1nc2c(-c3ccc(S(=O)(=O)N[C@@H]4CCNC4)c(S(N)(=O)=O)c3-c3nn[nH]n3)cccc2[nH]1 | Serratia marcescens expressing IMP-1 (CL5741) | 1.563 |
| NCc1nc2cc(-c3ccc(S(=O)(=O)N[C@@H]4CCNC4)c(S(N)(=O)=O)c3-c3nn[nH]n3)ccc2[nH]1 | Serratia marcescens expressing IMP-1 (CL5741) | 1.563 |
| NCCNc1cc(-c2ccc(S(=O)(=O)NCCO)c(S(N)(=O)=O)c2-c2nn[nH]n2)ccn1 | Serratia marcescens expressing IMP-1 (CL5741) | 3.125 |
| NCCNS(=O)(=O)c1ccc(-c2cccc(C(=O)NC[C@@H](N)CO)c2N)c(-c2nn[nH]n2)c1S(N)(=O)=O | Serratia marcescens expressing IMP-1 (CL5741) | 1.563 |
